Each entry below carries its recorded one-hybrid fitness for binding parS DNA.
B1: Caulobacter ParB omega fusion; a variant is named by its letters at X, in order, B8GW30 (parent)
chain: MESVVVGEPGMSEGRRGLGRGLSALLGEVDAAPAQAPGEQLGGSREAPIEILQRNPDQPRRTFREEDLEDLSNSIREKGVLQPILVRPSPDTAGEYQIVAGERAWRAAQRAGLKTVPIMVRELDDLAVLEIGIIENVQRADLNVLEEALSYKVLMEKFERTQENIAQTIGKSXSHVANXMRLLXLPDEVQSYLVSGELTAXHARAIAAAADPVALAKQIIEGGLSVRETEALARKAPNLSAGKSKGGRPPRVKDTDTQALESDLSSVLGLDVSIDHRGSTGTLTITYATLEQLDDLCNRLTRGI

variants of: B1; assay: one-hybrid fitness for binding parS DNA (scaled: cognate 1, non-cognate 0); higher = stronger binding; details: with parS DNA site
In all, about 81,000 sequences were measured (“one-hybrid fitness for binding parS DNA”: median about -0.17, highest 2% from about 0.51 on). For the sample, the highest values were picked, then their nearest neighbours and some sequences at random.
PROPERTY MEASURED: one-hybrid fitness for binding parS DNA

mutation_id=RWCN reported_measurement="≤ 0.2"
mutation_id=RRIM reported_measurement="≤ 0.2"
mutation_id=RTEP reported_measurement="≤ 0.2"
mutation_id=RVPM reported_measurement="≤ 0.2"
mutation_id=RHNP reported_measurement="≤ 0.2"
mutation_id=RHRQ reported_measurement="≤ 0.2"
mutation_id=RKET reported_measurement=0.799
mutation_id=RHRC reported_measurement=0.879
mutation_id=RHDY reported_measurement=0.397
mutation_id=RWDK reported_measurement="≤ 0.2"
mutation_id=RRIP reported_measurement="≤ 0.2"
mutation_id=RWDF reported_measurement="≤ 0.2"
mutation_id=RRTH reported_measurement="≤ 0.2"
mutation_id=IGDM reported_measurement="≤ 0.2"
mutation_id=RVGM reported_measurement=0.306
mutation_id=RIQD reported_measurement="≤ 0.2"
mutation_id=RHNC reported_measurement=0.871
mutation_id=RVGF reported_measurement=0.254
mutation_id=RWRP reported_measurement="≤ 0.2"
mutation_id=RGGN reported_measurement="≤ 0.2"
mutation_id=RYFC reported_measurement=0.965
mutation_id=TQYS reported_measurement="≤ 0.2"
mutation_id=YPKA reported_measurement="≤ 0.2"
mutation_id=RVQM reported_measurement=0.278
mutation_id=RDQS reported_measurement="≤ 0.2"
mutation_id=QCMI reported_measurement="≤ 0.2"
mutation_id=RRTD reported_measurement="≤ 0.2"
mutation_id=LPHA reported_measurement="≤ 0.2"
mutation_id=NQKR reported_measurement="≤ 0.2"
mutation_id=RKER reported_measurement="≤ 0.2"
mutation_id=RRTP reported_measurement="≤ 0.2"
mutation_id=MIEG reported_measurement="≤ 0.2"
mutation_id=HVMR reported_measurement="≤ 0.2"
mutation_id=GKPL reported_measurement="≤ 0.2"
mutation_id=RVWY reported_measurement=0.49
mutation_id=RGCN reported_measurement="≤ 0.2"
mutation_id=RVQK reported_measurement="≤ 0.2"
mutation_id=FSHN reported_measurement="≤ 0.2"
mutation_id=RRIG reported_measurement=0.908
mutation_id=RWDS reported_measurement=0.76
mutation_id=RGWN reported_measurement="≤ 0.2"
mutation_id=RVIT reported_measurement=0.703
mutation_id=RWRS reported_measurement=0.955
mutation_id=RTEY reported_measurement=0.414
mutation_id=QEKR reported_measurement="≤ 0.2"
mutation_id=RHSH reported_measurement="≤ 0.2"
mutation_id=RVPT reported_measurement=0.529
mutation_id=RCPM reported_measurement=0.203
mutation_id=RWCM reported_measurement="≤ 0.2"
mutation_id=RHYV reported_measurement="≤ 0.2"
mutation_id=RVIF reported_measurement="≤ 0.2"
mutation_id=RHDC reported_measurement=0.878
mutation_id=RYFK reported_measurement="≤ 0.2"
mutation_id=RCQS reported_measurement=0.986
mutation_id=RWQP reported_measurement="≤ 0.2"
mutation_id=RHDM reported_measurement=0.254
mutation_id=NFEC reported_measurement="≤ 0.2"
mutation_id=RVWC reported_measurement=0.963
mutation_id=RWDG reported_measurement=0.616
mutation_id=CRNF reported_measurement="≤ 0.2"
mutation_id=CTGE reported_measurement="≤ 0.2"
mutation_id=RWCR reported_measurement="≤ 0.2"
mutation_id=MPYE reported_measurement="≤ 0.2"
mutation_id=RWWR reported_measurement="≤ 0.2"
mutation_id=RGCT reported_measurement=0.51
mutation_id=RLEK reported_measurement="≤ 0.2"
mutation_id=RTQD reported_measurement=0.202
mutation_id=RWDP reported_measurement="≤ 0.2"
mutation_id=VKRS reported_measurement="≤ 0.2"
mutation_id=RGCD reported_measurement="≤ 0.2"
mutation_id=LATY reported_measurement="≤ 0.2"
mutation_id=RWCG reported_measurement=0.688
mutation_id=PFTT reported_measurement="≤ 0.2"
mutation_id=RYAM reported_measurement=0.267
mutation_id=RIQH reported_measurement="≤ 0.2"
mutation_id=AIHE reported_measurement="≤ 0.2"
mutation_id=RKEY reported_measurement=0.401
mutation_id=RVIQ reported_measurement="≤ 0.2"
